Assay: basal RPMI8226 mitochondrial membrane potential changes, profiling panel, cell-based, JC-1 fluorescence, 24 h, 100 nL compound (AID 1169); also: test concentration not given here
Details: RPMI8226 myeloma, JC-1 mitochondrial potential fluorescence, higher = more signal
recordedMetric: z-score
Quick one: just the number, no unit, thanks!

The cases that follow already have their z-score on record.
* NCCCCCCNC(=O)[C@H]1C[C@H]2C(=O)NCC(=O)N2[C@H]1c1cccc(OCCO)c1 | -0.417
* [N-]=[N+]=NCc1ccccc1C[C@]1(C(=O)NCCN2CCOCC2)N=C(c2ccc(OCCCO)cc2)O[C@H]1c1ccccc1N=[N+]=[N-] | -1.02
* [N-]=[N+]=NCc1ccccc1C[C@]1(C(=O)O)N=C(c2ccc(OCCCO)cc2)O[C@H]1c1ccccc1CN=[N+]=[N-] | -0.789

Query COc1cc2c(cc1O)C(C)N(Cc1cccc(OC(F)(F)F)c1)CC2 (configuration not stated) yields z-score of 0.0842

Query CC(=O)NCCCC[C@@H]1NC(=O)[C@H]2C[C@@H](C(=O)NCCCCCC[N+](C)(C)C)[C@@H](c3cccc(OCCO)c3)N2C1=O yields z-score of -0.135

Query CC(c1ccccc1)C(O)C1C=CC2C(=O)NC(=O)C2N1Nc1ccccn1 (configuration not stated) yields z-score of 0.568

Query COc1ccc([Si](C)(C)[C@H]2[C@H](CCn3cc([C@H](O)c4ccccc4)nn3)O[C@@]3(C(=O)N(Cc4cccc(N5CCC5=O)c4)c4ccccc43)[C@@H]2C)cc1 yields z-score of -1.15
